All figures here come from paper PMC7227796.

experimental.target: GluA1 (Rattus norvegicus, UniProt P19490)
Sequence (P19490 19-907): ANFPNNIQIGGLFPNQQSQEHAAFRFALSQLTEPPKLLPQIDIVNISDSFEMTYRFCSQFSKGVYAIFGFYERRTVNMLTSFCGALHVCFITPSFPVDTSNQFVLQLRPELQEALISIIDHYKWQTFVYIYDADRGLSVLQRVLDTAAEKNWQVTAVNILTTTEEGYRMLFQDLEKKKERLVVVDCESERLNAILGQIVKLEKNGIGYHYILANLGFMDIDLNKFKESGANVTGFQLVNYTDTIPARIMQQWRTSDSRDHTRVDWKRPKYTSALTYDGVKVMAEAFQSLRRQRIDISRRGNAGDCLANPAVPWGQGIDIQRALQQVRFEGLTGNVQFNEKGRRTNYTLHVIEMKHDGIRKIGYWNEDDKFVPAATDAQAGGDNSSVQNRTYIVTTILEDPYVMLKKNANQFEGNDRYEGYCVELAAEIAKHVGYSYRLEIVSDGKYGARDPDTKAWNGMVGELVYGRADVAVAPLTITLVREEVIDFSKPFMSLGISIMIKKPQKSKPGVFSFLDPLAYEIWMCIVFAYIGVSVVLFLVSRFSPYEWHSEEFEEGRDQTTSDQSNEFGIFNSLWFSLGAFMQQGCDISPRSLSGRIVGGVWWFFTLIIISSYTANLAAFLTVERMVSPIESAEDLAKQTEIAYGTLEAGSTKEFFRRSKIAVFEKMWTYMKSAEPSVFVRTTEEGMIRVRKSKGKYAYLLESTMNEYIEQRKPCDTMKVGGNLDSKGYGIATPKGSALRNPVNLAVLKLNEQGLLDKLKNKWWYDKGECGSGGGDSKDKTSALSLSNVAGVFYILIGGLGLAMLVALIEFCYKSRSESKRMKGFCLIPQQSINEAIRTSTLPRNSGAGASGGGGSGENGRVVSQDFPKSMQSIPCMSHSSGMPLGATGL
test.protocol: Radioligand binding at recombinant homomeric GluA1
What Ki was measured for each of the following?
State the result as a value with its unit after it.

Please state, for each entry, its recorded Ki.
1. Cl.O=C(O)c1cc(-c2cccnc2)cc([C@H]2CCN[C@@H]2C(=O)O)c1
2. Cl.O=C(O)c1cc(-c2cnc(O)nc2)cc([C@H]2CCN[C@@H]2C(=O)O)c1
3. Cl.O=C(O)c1cc(-c2ccncc2)cc([C@H]2CCN[C@@H]2C(=O)O)c1
4. Cl.O=C(O)c1cc(-c2cncnc2)cc([C@H]2CCN[C@@H]2C(=O)O)c1

1. 15 µM
2. 10 µM
3. 12 µM
4. 22.7 µM

Consider the compound "Cl.O=C(O)c1cc(-c2ccccn2)cc([C@H]2CCN[C@@H]2C(=O)O)c1" and give its measured Ki.
19 µM
